# Test system: S.pneumoniae ATCC 49619
# Assay type: cell-based, Streptococcus pneumoniae
# RUN_PARAMETERS: ATCC 49619, 24 h
Where a SMILES comes first, the peptide text is derived from it. [ ]: non-standard residue; d: D form. The star is where a group is joined. Arachidoyl = CCCCCCCCCCCCCCCCCCCC(=O)*; Palmitoyl = CCCCCCCCCCCCCCCC(=O)*; Myristoyl = CCCCCCCCCCCCCC(=O)*; Undecanoyl = CCCCCCCCCCC(=O)*; Nlys = NCCCCNCC(=O)O
QUANTITY_NAME: MIC S.pneumoniae (µg/mL)

Example molecules with recorded MIC S.pneumoniae:
>>> obs_value("CCCCCCCCCCCCCCCC(=O)N(CCCCN)CC(=O)NCC(=O)N(CCCCN)CC(N)=O [C16-NlysGNlys] (Palmitoyl-[Nlys]-Gly-[Nlys]-NH2)")
128
>>> obs_value("CCCCCCCCCCCCCC(=O)N(CCCCNC(=N)N)CC(=O)N(CCCCNC(=N)N)CC(=O)N(CCCCNC(=N)N)CC(N)=O")
64
>>> obs_value("CCCCCCCCCCCCCCCC(=O)N(CCCCN)CC(=O)N(CCCCN)CC(=O)N(CCCCN)CC(N)=O")
128
>>> obs_value("CCCCCCCCCCCCCC(=O)N(CCCCNC(=N)N)CC(=O)NCC(=O)N(CCCCNC(=N)N)CC(N)=O")
128
>>> obs_value("CCCCCCCCCCC(=O)N(CCCCN)CC(=O)NCC(=O)N(CCCCN)CC(N)=O [C11-NlysGNlys] (Undecanoyl-[Nlys]-Gly-[Nlys]-NH2)")
512
>>> obs_value("CCCCCCCCCCCCCCCC(=O)N(CCCCNC(=N)N)CC(=O)N(CCCCNC(=N)N)CC(=O)N(CCCCNC(=N)N)CC(N)=O")
64
>>> obs_value("CCCCCCCCCCCCCCCCCCCC(=O)N(CCCCN)CC(=O)NCC(=O)N(CCCCN)CC(N)=O [C20-NlysGNlys] (Arachidoyl-[Nlys]-Gly-[Nlys]-NH2)")
128
>>> obs_value("CCCCCCCCCCCCCC(=O)N(CCCCN)CC(=O)NCC(=O)N(CCCCN)CC(N)=O [C14-NlysGNlys] (Myristoyl-[Nlys]-Gly-[Nlys]-NH2)")
256
>>> obs_value("CCCCCCCCCCC(=O)N(CCCCNC(=N)N)CC(=O)N(CCCCNC(=N)N)CC(=O)N(CCCCNC(=N)N)CC(N)=O")
512
>>> obs_value("CCCCCCCCCCCCCCCCCCCC(=O)N(CCCCNC(=N)N)CC(=O)NCC(=O)N(CCCCNC(=N)N)CC(N)=O")
256

A. CCCCCCCCCCCCCCCCCCCC(=O)N(CCCCN)CC(=O)N(CCCCN)CC(=O)N(CCCCN)CC(N)=O
B. CCCCCCCCCCCCCCCC(=O)N(CCCCNC(=N)N)CC(=O)NCC(=O)N(CCCCNC(=N)N)CC(N)=O
Req: A or B : whose MIC S.pneumoniae is greater? Your choice should be expressed through its label.
Resp: B
(B: 128 µg/mL, A: 64 µg/mL)

1. CCCCCCCCCCC(=O)N(CCCCNC(=N)N)CC(=O)NCC(=O)N(CCCCNC(=N)N)CC(N)=O
2. CCCCCCCCCCCCCC(=O)N(CCCCN)CC(=O)N(CCCCN)CC(=O)N(CCCCN)CC(N)=O
Req: 1 or 2 : whose MIC S.pneumoniae is greater? Your choice should be expressed through its label.
Resp: 1

----------
# System: S.aureus ATCC 29213
# Format: cell-based, Staphylococcus aureus
# RUN_PARAMETERS: ATCC 29213, 24 h
Where a SMILES comes first, the peptide text is derived from it. [ ]: non-standard residue; d: D form. The star is where a group is joined. Myristoyl = CCCCCCCCCCCCCC(=O)*; Nlys = NCCCCNCC(=O)O
QUANTITY_NAME: MIC S.aureus in the presence of 4% bovine serum albumin (µg/mL)

>>> obs_value("CCCCCCCCCCCCCCCCCCCC(=O)N(CCCCNC(=N)N)CC(=O)NCC(=O)N(CCCCNC(=N)N)CC(N)=O")
512
>>> obs_value("CCCCCCCCCCCCCC(=O)N(CCCCN)CC(=O)NCC(=O)N(CCCCN)CC(N)=O [C14-NlysGNlys] (Myristoyl-[Nlys]-Gly-[Nlys]-NH2)")
512

----------
# Test system: E.coli CAN-ICU 63074
# Format: cell-based, Escherichia coli
# RUN_PARAMETERS: CAN-ICU 63074, 24 h
QUANTITY_NAME: MIC E.coli (µg/mL)

A. CCCCCCCCCCC(=O)N(CCCCNC(=N)N)CC(=O)NCC(=O)N(CCCCNC(=N)N)CC(N)=O
B. CCCCCCCCCCCCCCCC(=O)N(CCCCNC(=N)N)CC(=O)NCC(=O)N(CCCCNC(=N)N)CC(N)=O
Req: A or B : whose MIC E.coli is greater? Your choice should be expressed through its label.
Resp: A

----------
# Test system: S.aureus ATCC 29213
# Format: cell-based, Staphylococcus aureus
# RUN_PARAMETERS: ATCC 29213, 24 h
Where a SMILES comes first, the peptide text is derived from it. [ ]: non-standard residue; d: D form. The star is where a group is joined. Arachidoyl = CCCCCCCCCCCCCCCCCCCC(=O)*; Nlys = NCCCCNCC(=O)O
QUANTITY_NAME: MIC S.aureus in the presence of 4% bovine serum albumin (µg/mL)

Example compounds with recorded MIC S.aureus in the presence of 4% bovine serum albumin:
>>> obs_value("CCCCCCCCCCCCCCCCCCCC(=O)N(CCCCN)CC(=O)NCC(=O)N(CCCCN)CC(N)=O [C20-NlysGNlys] (Arachidoyl-[Nlys]-Gly-[Nlys]-NH2)")
512
>>> obs_value("CCCCCCCCCCCCCC(=O)N(CCCCN)CC(=O)N(CCCCN)CC(=O)N(CCCCN)CC(N)=O")
512
>>> obs_value("CCCCCCCCCCCCCC(=O)N(CCCCNC(=N)N)CC(=O)N(CCCCNC(=N)N)CC(=O)N(CCCCNC(=N)N)CC(N)=O")
256
>>> obs_value("CCCCCCCCCCC(=O)N(CCCCNC(=N)N)CC(=O)NCC(=O)N(CCCCNC(=N)N)CC(N)=O")
512
>>> obs_value("CCCCCCCCCCCCCCCC(=O)N(CCCCNC(=N)N)CC(=O)N(CCCCNC(=N)N)CC(=O)N(CCCCNC(=N)N)CC(N)=O")
512

P. CCCCCCCCCCCCCCCC(=O)N(CCCCNC(=N)N)CC(=O)NCC(=O)N(CCCCNC(=N)N)CC(N)=O
Q. CCCCCCCCCCCCCCCCCCCC(=O)N(CCCCN)CC(=O)N(CCCCN)CC(=O)N(CCCCN)CC(N)=O
Req: P or Q : whose MIC S.aureus in the presence of 4% bovine serum albumin is greater? Your choice should be expressed through its label.
Resp: P
(P: 512 µg/mL, Q: 128 µg/mL)

----------
# Test system: K.pneumoniae ATCC 13883
# Assay type: cell-based, Klebsiella pneumoniae
# RUN_PARAMETERS: ATCC 13883, 24 h
Where a SMILES comes first, the peptide text is derived from it. [ ]: non-standard residue; d: D form. The star is where a group is joined. Palmitoyl = CCCCCCCCCCCCCCCC(=O)*; Nlys = NCCCCNCC(=O)O
QUANTITY_NAME: MIC K.pneumoniae (µg/mL)

Example compounds with recorded MIC K.pneumoniae:
>>> obs_value("CCCCCCCCCCCCCC(=O)N(CCCCNC(=N)N)CC(=O)NCC(=O)N(CCCCNC(=N)N)CC(N)=O")
256
>>> obs_value("CCCCCCCCCCCCCCCC(=O)N(CCCCN)CC(=O)NCC(=O)N(CCCCN)CC(N)=O [C16-NlysGNlys] (Palmitoyl-[Nlys]-Gly-[Nlys]-NH2)")
64
>>> obs_value("CCCCCCCCCCCCCC(=O)N(CCCCNC(=N)N)CC(=O)N(CCCCNC(=N)N)CC(=O)N(CCCCNC(=N)N)CC(N)=O")
256

a. CCCCCCCCCCCCCCCC(=O)N(CCCCN)CC(=O)N(CCCCN)CC(=O)N(CCCCN)CC(N)=O
b. CCCCCCCCCCCCCC(=O)N(CCCCN)CC(=O)N(CCCCN)CC(=O)N(CCCCN)CC(N)=O
c. CCCCCCCCCCCCCCCC(=O)N(CCCCNC(=N)N)CC(=O)N(CCCCNC(=N)N)CC(=O)N(CCCCNC(=N)N)CC(N)=O
Req: List the 3 entries from lowest MIC K.pneumoniae to highest MIC K.pneumoniae value. Lab note: record answer as labels in requested order.
Resp: a, c, b

----------
# System: ovine erythrocytes
# EXPERIMENT_DESCRIPTION: Haemolytic assay
# Assay type: cell-based, sheep
# RUN_PARAMETERS: ovine erythrocytes in Tris buffered saline, 30 minutes, absorbance of supernatant at 540 nm
# Description: Mammalian cell toxicity was determined by measuring lysis of ovine erythrocytes, a standard model for human cell toxicity. Cells were prewashed with Tris buffered saline and then incubated with a variety of lipopeptoid concentrations for 30 minutes. Following centrifugation, lysis was evaluated by testing the absorbance of the solution at 540 nm, with 0.5% NH4OH used as a positive control. Toxicity to mammalian cells was determined using a sheep red blood cell (erythrocyte) haemolytic assay (4). […]
Where a SMILES comes first, the peptide text is derived from it. [ ]: non-standard residue; d: D form. The star is where a group is joined. Arachidoyl = CCCCCCCCCCCCCCCCCCCC(=O)*; Palmitoyl = CCCCCCCCCCCCCCCC(=O)*; Myristoyl = CCCCCCCCCCCCCC(=O)*; Undecanoyl = CCCCCCCCCCC(=O)*; Nlys = NCCCCNCC(=O)O
Each entry below carries its reported Percent haemolysis at 100µg/mL of compound.
Give the value in % but do not write % after it.

>>> obs_value("CCCCCCCCCCCCCCCCCCCC(=O)N(CCCCN)CC(=O)N(CCCCN)CC(=O)N(CCCCN)CC(N)=O [C20-NlysNlysNlys]")
68.29
>>> obs_value("CCCCCCCCCCCCCCCC(=O)N(CCCCN)CC(=O)NCC(=O)N(CCCCN)CC(N)=O [C16-NlysGNlys] (Palmitoyl-[Nlys]-Gly-[Nlys]-NH2)")
56.03
>>> obs_value("CCCCCCCCCCCCCCCCCCCC(=O)N(CCCCNC(=N)N)CC(=O)NCC(=O)N(CCCCNC(=N)N)CC(N)=O [C20-NhargGNharg]")
71.87
>>> obs_value("CCCCCCCCCCCCCCCC(=O)N(CCCCNC(=N)N)CC(=O)N(CCCCNC(=N)N)CC(=O)N(CCCCNC(=N)N)CC(N)=O [C16-NhargNhargNharg]")
30.80
>>> obs_value("CCCCCCCCCCCCCCCC(=O)N(CCCCN)CC(=O)N(CCCCN)CC(=O)N(CCCCN)CC(N)=O [C16-NlysNlysNlys]")
67.69
>>> obs_value("CCCCCCCCCCC(=O)N(CCCCN)CC(=O)NCC(=O)N(CCCCN)CC(N)=O [C11-NlysGNlys] (Undecanoyl-[Nlys]-Gly-[Nlys]-NH2)")
1.34
>>> obs_value("NCCCCN(CC(N)=O)C(=O)CNC(=O)CN(CCCCN)C(=O)CCC(F)(F)C(F)(F)C(F)(F)C(F)(F)C(F)(F)C(F)(F)C(F)(F)C(F)(F)F [F11-NlysGNlys]")
4.84
>>> obs_value("CCCCCCCCCCC(=O)N(CCCCN)CC(=O)N(CCCCN)CC(=O)N(CCCCN)CC(N)=O [C11-NlysNlysNlys]")
0.67
>>> obs_value("CCCCCCCCCCCCCC(=O)N(CCCCN)CC(=O)N(CCCCN)CC(=O)N(CCCCN)CC(N)=O [C14-NlysNlysNlys]")
2.19
>>> obs_value("CCCCCCCCCCCCCC(=O)N(CCCCNC(=N)N)CC(=O)NCC(=O)N(CCCCNC(=N)N)CC(N)=O [C14-NhargGNharg]")
55.44

Note to self: Percent haemolysis at 100µg/mL of compound recorded for NCCCCN(CC(N)=O)C(=O)CN(CCCCN)C(=O)CN(CCCCN)C(=O)CCC(F)(F)C(F)(F)C(F)(F)C(F)(F)C(F)(F)C(F)(F)C(F)(F)C(F)(F)F [F11-NlysNlysNlys] was 8.13

Note to self: Percent haemolysis at 100µg/mL of compound recorded for CCCCCCCCCCC(=O)N(CCCCNC(=N)N)CC(=O)NCC(=O)N(CCCCNC(=N)N)CC(N)=O [C11-NhargGNharg] was 1.49

Note to self: Percent haemolysis at 100µg/mL of compound recorded for CCCCCCCCCCCCCC(=O)N(CCCCNC(=N)N)CC(=O)N(CCCCNC(=N)N)CC(=O)N(CCCCNC(=N)N)CC(N)=O [C14-NhargNhargNharg] was 20.34

Note to self: Percent haemolysis at 100µg/mL of compound recorded for CCCCCCCCCCCCCC(=O)N(CCCCN)CC(=O)NCC(=O)N(CCCCN)CC(N)=O [C14-NlysGNlys] (Myristoyl-[Nlys]-Gly-[Nlys]-NH2) was 2.90

Note to self: Percent haemolysis at 100µg/mL of compound recorded for CCCCCCCCCCCCCCCCCCCC(=O)N(CCCCN)CC(=O)NCC(=O)N(CCCCN)CC(N)=O [C20-NlysGNlys] (Arachidoyl-[Nlys]-Gly-[Nlys]-NH2) was 33.51

Note to self: Percent haemolysis at 100µg/mL of compound recorded for CCCCCCCCCCCCCCCC(=O)N(CCCCNC(=N)N)CC(=O)NCC(=O)N(CCCCNC(=N)N)CC(N)=O [C16-NhargGNharg] was 61.06

Source: paper PMC3402541
